Reference for the values: patent US20210253718A1

# target-under-test: T1, FZD5 CRD (Homo sapiens, UniProt Q13467)
# T1 construct: K29-T156; GPI anchor signal (C); expressed in transfected cells; host or cells: CHO cells, lentiviral pLenti-puro
# T1 sequence (Q13467 29-156): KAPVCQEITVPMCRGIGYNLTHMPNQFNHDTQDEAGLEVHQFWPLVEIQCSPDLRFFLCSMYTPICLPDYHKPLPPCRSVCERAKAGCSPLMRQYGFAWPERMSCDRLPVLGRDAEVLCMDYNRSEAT
# assay: Immunofluorescence of anti-FZD5 Fab binding to CHO cells overexpressing Frizzled CRD
# Design: key: −: no binding; +: very weak binder; ++: weak binder; +++: good binder; ++++: very good binder
observable: Immunofluorescence binding, Frizzled CRD overexpressed on CHO cells: FZD5

Fab-2919: anti-FZD5 Fab with antibody variable region Fv-2919; CDR SEQ ID NOs: 35, 36, 58, 97, 134, 155 (antibody, V domains shown) VH: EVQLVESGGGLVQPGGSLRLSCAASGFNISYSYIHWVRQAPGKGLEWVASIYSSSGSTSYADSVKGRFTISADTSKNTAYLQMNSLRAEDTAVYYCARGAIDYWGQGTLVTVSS VL: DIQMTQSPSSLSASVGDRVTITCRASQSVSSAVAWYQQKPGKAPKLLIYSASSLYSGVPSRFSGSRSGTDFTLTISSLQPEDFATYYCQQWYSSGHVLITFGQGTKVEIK	++++
Fab-2918: anti-FZD5 Fab with antibody variable region Fv-2918; CDR SEQ ID NOs: 35, 36, 57, 96, 133, 169 (antibody, V domains shown) VH: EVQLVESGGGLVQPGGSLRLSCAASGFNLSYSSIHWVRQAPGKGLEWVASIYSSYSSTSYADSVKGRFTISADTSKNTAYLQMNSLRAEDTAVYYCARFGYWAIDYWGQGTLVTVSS VL: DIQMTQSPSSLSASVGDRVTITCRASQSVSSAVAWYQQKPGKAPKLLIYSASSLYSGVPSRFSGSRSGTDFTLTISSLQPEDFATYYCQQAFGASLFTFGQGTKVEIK	++++
